- System: MDA-MB-231, SUM-149, T47D
- RUN DESCRIPTION: Cytotoxicity of EP analogues via CTG assay, comparison across cell lines
- CONDITION DESCRIPTION: 72 hr
ENDPOINT NAME: cytotoxicity compared with parental compound 3 (in words)

Take a look at these entries with their results.
>>> measured_result("CCOP(=O)(COC1CCC2(C)C3CCC4(C)C(C(C)C=CC(C)C(C)C)CCC4C34C=CC2(C1)OO4)OCC (centres unmarked)")
"improved activity"
>>> measured_result("CC(C)C(C)C=CC(C)C1CCC2C1(C)CCC1C23C=CC2(CC(OC(=O)CCCC(=O)O)CCC12C)OO3 (centres unmarked)")
"poor activity"
>>> measured_result("CC(C)C(C)C=CC(C)C1CCC2C1(C)CCC1C23C=CC2(CC(=O)CCC12C)OO3 (centres unmarked)")
"improved activity"
>>> measured_result("CC(C)C(C)C=CC(C)C1CCC2C1(C)CCC1C23C=CC2(CC(OCP(=O)(O)O)CCC12C)OO3 (centres unmarked)")
"poor activity"

Lab note: next molecule to report on.
Fill in reported cytotoxicity compared with parental compound 3 (in words) for this entry: CC(C)C(C)C=CC(C)C1CCC2C1(C)CCC1C23C=CC2(CC(OP(=O)([O-])OCC[N+](C)(C)C)CCC12C)OO3 (centres unmarked) poor activity

====

- System: additional cancer cellular models
- RUN DESCRIPTION: Cell viability assay, additional cancer models
- Assay type: cell-based
pEC50: −log10 of the molar value.
ENDPOINT NAME: pEC50

Fill in reported pEC50 for this entry: CC(C)[C@@H](C)/C=C/[C@@H](C)[C@H]1CC[C@@H]2[C@]1(C)CC[C@H]1[C@]23C=C[C@]2(C[C@@H](O)CC[C@]12C)OO3 [EP, ergosterol peroxide] 4.66 to 5.15
